# Target or system: T1, recombinant human αvβ6 integrin extracellular domains (human, UniProt P06756 1-992; P18564 1-709, Biotinylated on the Avitag (tag not in the letters); interchain disulfide between the coiled-coils (not in the letters).)
# T1 construct: Soluble heterodimer co-expressed in Expi293 cells; also called hαvβ6
# Assay method text: AlphaLISA blocking of human LAP binding
Overview of recorded pIC50 for various binders
Please keep in mind that pIC50 is minus log10 of the molar concentration; only the number is needed.

{"Binder": "Ab-30 (antibody, V domains shown) VH: EVQLQESGPGLVKPSETLSLTCAVSGYSISSGYYWGWIRQPPGKGLEWIGSIYHSGNTYYNPSLKSRVTISVDTSKNQFSLKLSSVTAADTAVYYCARVPRYSRGDAYYYYGMDVWGQGTTVTVSS VL: DIQMTQSPSTLSASVGDRVTITCRASQSISSWLAWYQQKPGKAPKLLIYKASSLESGVPSRFSGSGSGTEFTLTISSLQPDDFATYYCQQVKIYPPYTFGGGTKVEIK", "pIC50": 7.59}
{"Binder": "control antibody abituzumab (mAb-24) (antibody, V domains shown) VH: QVQLQQSGGELAKPGASVKVSCKASGYTFSSFWMHWVRQAPGQGLEWIGYINPRSGYTEYNEIFRDKATMTTDTSTSTAYMELSSLRSEDTAVYYCASFLGRGAMDYWGQGTTVTVSS VL: DIQMTQSPSSLSASVGDRVTITCRASQDISNYLAWYQQKPGKAPKLLIYYTSKIHSGVPSRFSGSGSGTDYTFTISSLQPEDIATYYCQQGNTFPYTFGQGTKVEIKR", "pIC50": 8.44}

Read the next record carefully.
Need pIC50 of Ab-31 (antibody, V domains shown) VH: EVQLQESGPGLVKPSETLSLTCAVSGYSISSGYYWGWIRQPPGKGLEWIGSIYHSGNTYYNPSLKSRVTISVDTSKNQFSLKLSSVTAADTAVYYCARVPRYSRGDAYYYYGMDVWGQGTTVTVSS VL: DIQMTQSPSTLSASVGDRVTITCRASQSIGSWLAWYQQKPGKAPKLLIYKASSLESGVPSRFSGSGSGTEFTLTISSLQPDDFATYYCQQSGPYPWTFGGGTKVEIK , thanks.
7.51

# credit: patent US20250313635A1
